Data provenance is PubChem BioAssay (NCI).

Assay: NCI Yeast Anticancer Drug Screen. Data for the wt1 strain (AID 149);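 note: 0% = growth of vehicle-treated wt1 cultures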
Conditions: S. cerevisiae wt1 strain (SPY 50644) growth inhibition; at 33.0 µM; active compounds read high
Procedure: Growth inhibition of yeast strains with defined genetic alterations is measured as a screen for potential anti-cancer activity. Selected strains with alterations in DNA damage repair or cell cycle control were exposed to compounds and growth inhibition was measured relative to vehicle treated controls. The strain used in this assay is wt1
The panel holds about 79,000 compounds, 15% with a hit somewhere; the sample as a whole holds those more often.
reportedMetric: growth inhibition (%)

>>> measuredvalue("CCC1(O)C(=O)OCc2c1cc1n(c2=O)Cc2cc3ccccc3nc2-1 (centres undefined)")
5
>>> measuredvalue("O=C(O)C1C2C=CC(C2)C1c1ccccc1 (centres undefined)")
-9
>>> measuredvalue("CSC(=Nc1ccccc1)N(c1ccccc1)c1nc(=[N+](C)C)ss1")
93
>>> measuredvalue("[O-][n+]1c2cccc(O)c2[n+]([O-])c2cccc(O)c21")
10
>>> measuredvalue("CC1CN1C1=C(Cl)C(=O)C(N2CC2C)=C(Cl)C1=O (centres undefined)")
81
>>> measuredvalue("C=CC[N+]12CN3CN(CN(C3)C1)C2")
-23
>>> measuredvalue("CC1CC(C)CC(C)C(O)/C(C#N)=C/C=C/CC(C2CCCC2C(=O)O)OC(=O)CC(O)C(C)C1 (centres undefined)")
99
>>> measuredvalue("CC[C@@]1(O)C(=O)OCc2c1cc1n(c2=O)Cc2cc3ccccc3nc2-1")
94
>>> measuredvalue("NNc1ccccc1Cl")
95
>>> measuredvalue("c1ccc(N=c2nc(N3CCOCC3)ss2)cc1")
98
>>> measuredvalue("Cc1c2ccccc2cc2ccccc12")
93
>>> measuredvalue("C[N+](CCCl)(CCCl)Cc1cccc2cccc([N+](=O)[O-])c12")
28
>>> measuredvalue("O=C1C=CC(=O)C1(Br)Br")
66
>>> measuredvalue("Oc1ccc(Cl)cc1Cc1ccccc1")
99
